Study the reported IC50 values for cGMP-specific 3',5'-cyclic phosphodiesterase (Homo sapiens) given below; they originate from different publications.
Answers are plain numbers, in nM.

Worked cases, answers included:
> print(dat)
                                   molecule  units  meas.value
1  CC1(C)C(=O)Nc2nc(-c3nn(Cc4ccccc4F)c4ncccc34)nc(N3C[C@@H]4C[C@H]3CO4)c21     nM          35
2  Cc1nc2c(OCc3c(F)ccc(F)c3F)cccn2c1-c1nc2c(c(OCC3CC3)n1)C(C)(C)C(=O)N2     nM          46
3  CC1(C)C(=O)Nc2nc(-c3nn(Cc4ccccc4F)c4ncccc34)nc(N3CCOC(C(F)(F)F)C3)c21 (stereo not shown)     nM         720
4  CC1(C)C(=O)Nc2nc(-c3nn(Cc4ccccc4F)c4ncccc34)nc(NC[C@H]3CCCO3)c21     nM         330
5  Cc1nc2c(OCc3c(F)cccc3F)cccn2c1-c1nc2c(c(N[C@H]3CC[C@H](O)CC3)n1)C(C)(C)C(=O)N2     nM         2.5

Would you be so kind as to report IC50 for each listed record?
1. Cc1nc2c(cc1F)c(-c1nc(NCC(N)(CF)CF)c3c(n1)NC(=O)C3(C)C)nn2Cc1ccccc1F
2. CCC(CC)CNC(=O)c1nc(-c2nn(Cc3ccccc3F)c3ncccc23)nc2c1C(C)(C)C(=O)N2

Ans.
[160, 91]

* * *

Study the reported IC50 values for cGMP-specific 3',5'-cyclic phosphodiesterase (Homo sapiens) given below; they originate from different publications.
Answers are plain numbers, in nM.

Worked cases, answers included:
> print(dat)
                                    compound  meas.value
 1  CC1(C)C(=O)Nc2nc(-c3nc(Cc4c(F)ccc(F)c4F)n4cc(Cl)ccc34)nc(NCCC(F)(F)F)c21          80
 2  Cc1nc2c(cc1F)c(-c1nc(NCC(N)(CF)CF)c3c(n1)NC(=O)C3(C)C(F)(F)F)nn2Cc1c(F)ccc(F)c1F (single isomer, unassigned; ent-4)         100
 3  Cc1nc2c(OCc3c(F)cccc3F)cccn2c1-c1nc(NCC(C)(C)O)c2c(n1)NC(=O)C2(C)C         4.8
 4  Cc1nc2c(OCc3c(F)cccc3F)cccn2c1-c1nc(NCCN2CCC(F)(F)C2)c2c(n1)NC(=O)C2(C)C          26
 5  Cc1nc2c(OCc3c(F)cccc3F)cccn2c1-c1nc(CNS(C)(=O)=O)c2c(n1)NC(=O)C2(C)C          68
 6  Cc1nc2c(OCc3c(F)ccc(F)c3F)cccn2c1-c1nc2c(c(-c3cc[nH]n3)n1)C(C)(C)C(=O)N2          30
 7  CN(CC1CC1)C(=O)c1nc(-c2nn(Cc3ccccc3F)c3ncc(F)cc23)nc2c1C(C)(C)C(=O)N2         110
 8  CC1(C)C(=O)Nc2nc(-c3nn(Cc4ccccc4F)c4ncccc34)nc(NC[C@H]3CNC(=O)C3)c21          16
 9  COCCCNC(=O)c1nc(-c2nn(Cc3ccccc3F)c3ncccc23)nc2c1C(C)(C)C(=O)N2          14
10  Cc1nc2c(cc1F)c(-c1nc3c(c(C(=O)NCC(C)(N)CC(F)F)n1)C(C)(C)C(=O)N3)nn2Cc1cccc(F)c1F (single isomer, unassigned)         100

Would you be so kind as to report IC50 for each listed record?
1. CC(C)(N)CNc1nc(-c2nn(Cc3ccccc3F)c3ncc(F)cc23)nc2c1C(C)(C)C(=O)N2
2. Cn1c(C#N)ccc1-c1nc(-c2nn(Cc3ccccc3F)c3ncccc23)nc2c1C(C)(C)C(=O)N2
3. CC1(C)C(=O)Nc2nc(-c3nn(Cc4ccccc4F)c4ncccc34)nc(N3CCCC3)c21
4. Cc1nc2c(OCc3c(F)cccc3F)cccn2c1-c1nc(NCC2(N)CC2)c2c(n1)NC(=O)C2(C)C

Ans.
46
1300
980
6

* * *

Study the reported pIC50 values for cGMP-specific 3',5'-cyclic phosphodiesterase (Homo sapiens, UniProt O76074) given below; they originate from different publications.
Numbers only, as −log10 of the molar value.

Would you be so kind as to report pIC50 for each listed record?
1. Cc1nc2c(OCc3c(F)cccc3F)cccn2c1-c1nc(CN)c2c(n1)NC(=O)C2(C)C
2. CC1(C)C(=O)Nc2nc(-c3nn(Cc4ccccc4F)c4ncccc34)nc(C(=O)NCCSC(F)(F)F)c21
3. CC1(CC2CC2)C(=O)Nc2nc(-c3nn(Cc4ccccc4F)c4ncc(F)cc34)nnc21 (single isomer, unassigned)
4. CC1(C)C(=O)Nc2nc(-c3nn(Cc4ccccc4F)c4ncccc34)nc(C(=O)NC3CC3)c21
5. C[S+]([O-])CCNC(=O)c1nc(-c2nn(Cc3ccccc3F)c3ncccc23)nc2c1C(C)(C)C(=O)N2 (centres unmarked)

Ans.
1: 7.32; 2: 7.28; 3: 6.60; 4: 8.46; 5: 7.13

Would you be so kind as to report pIC50 for each listed record?
1. CC1(C)C(=O)Nc2nc(-c3nn(Cc4ccccc4F)c4ncccc34)nc(NCc3ccccc3)c21
2. CC1(C)C(=O)Nc2nc(-c3nn(Cc4ccccc4F)c4ncccc34)nc(CC(N)=O)c21
3. CN(C)CCNC(=O)c1nc(-c2nn(Cc3ccccc3F)c3ncccc23)nc2c1C(C)(C)C(=O)N2

Ans.
1. 6.64
2. 7.82
3. 6.48

Would you be so kind as to report pIC50 for each listed record?
1. CC1(C)C(=O)Nc2nc(-c3nn(Cc4ccccc4F)c4ncccc34)nc(NCCC(N)=O)c21
2. CC1(C)C(=O)Nc2nc(-c3nn(Cc4ccccc4F)c4ncc(F)cc34)nc(C(=O)NC3(C#N)CC3)c21

Ans.
7.80
8.00

Would you be so kind as to report pIC50 for each listed record?
1. CN(CCO)C(=O)c1nc(-c2nn(Cc3ccccc3F)c3ncccc23)nc2c1C(C)(C)C(=O)N2
2. CCCOc1nc(-c2nn(Cc3ccccc3F)c3ncccc23)nc2c1C(C)(C)C(=O)N2
3. CN(CC1CC1)C(=O)c1nc(-c2nn(Cc3ccccc3F)c3ncccc23)nc2c1C(C)(C)C(=O)N2
4. CC1(C)C(=O)Nc2nc(-c3nn(Cc4ccccc4F)c4ncc(F)cc34)nc(C(N)=O)c21
5. CCCc1nn(C)c2c(=O)[nH]c(-c3cc(S(=O)(=O)NCC4CCN(C)C4)ccc3OCC)nc12 (centres unmarked)
6. Cc1nc2c(OCc3c(F)cccc3F)cccn2c1-c1nc2c(c(NC3CCC(C)(O)CC3)n1)C(C)(C)C(=O)N2 (single isomer, unassigned; diastereomer 1)

Ans.
[6.66, 6.49, 6.15, 7.89, 6.85, 9.52]

* * *

Study the reported IC50 values for cGMP-specific 3',5'-cyclic phosphodiesterase (Homo sapiens) given below; they originate from different publications.
Numbers only, in nM.

> print(dat)
                                smiles.repr  units  meas.value
1  Cc1nc2c(OCc3c(F)cccc3F)cccn2c1-c1nc(C#N)c2c(n1)NC(=O)C2(C)C     nM         190
2  CC1(C)C(=O)Nc2nc(-n3nc(Cc4ccccc4F)c4ccccc43)nc(NCC3CC3)c21     nM          89
3  CC1(C)C(=O)Nc2nc(-c3nn(Cc4ccccc4F)c4ncccc34)nc(C(=O)NCC3CCCC3)c21     nM          35

Here is the next item to consider.
The value of IC50 measured for the compound `COCCNC(=O)c1nc(-c2nn(Cc3ncccc3F)c3ncc(F)cc23)nc2c1C(C)(C)C(=O)N2` turned out to be 73

* * *

Study the reported IC50 values for cGMP-specific 3',5'-cyclic phosphodiesterase (Homo sapiens) given below; they originate from different publications.
Give bare numbers, in nM.

Worked cases, answers included:
> print(dat)
                                   molecule  measured.parameter  meas.value
1  CC(C)(O)CNC(=O)c1nc(-c2nn(Cc3ccccc3F)c3ncc(F)cc23)nc2c1C(C)(C)C(=O)N2                IC50          12
2  C[C@@H](O)CNc1nc(-c2nn(Cc3ccccc3F)c3ncccc23)nc2c1C(C)(C)C(=O)N2                IC50          16
3  Cc1nc2c(cc1F)c(-c1nc3c(c(C(N)=O)n1)C(C)(C(F)(F)F)C(=O)N3)nn2Cc1c(F)ccc(F)c1F (single isomer, unassigned; ent-2)                IC50         170

Would you be so kind as to report IC50 for each listed record?
1. CC(CC1CC1)NC(=O)c1nc(-c2nn(Cc3ccccc3F)c3ncccc23)nc2c1C(C)(C)C(=O)N2 (racemic)
2. CC1(C)C(=O)Nc2nc(-c3nn(Cc4ccccc4F)c4ncccc34)nc(/C=C\C3CC3)c21
3. CC1(C)C(=O)Nc2nc(-c3nn(Cc4ccccc4F)c4ncccc34)nc(NCc3cccnc3)c21
4. CN(C(=O)c1nc(-c2nn(Cc3ccccc3F)c3cc(Cl)ccc23)nc2c1C(C)(C)C(=O)N2)C1CC1
5. O=C1Nc2nc(-c3nn(Cc4ccccc4F)c4ncc(F)cc34)nc(NCCC(F)(F)F)c2C12CCOC2 (stereo not drawn)

Ans.
[13, 150, 19, 1000, 2800]

Would you be so kind as to report IC50 for each listed record?
1. Cc1ccc(Cn2nc(-c3nnc4c(n3)NC(=O)C4(C)C)c3cc(F)cnc32)c(F)c1
2. Cc1nc2c(cc1F)c(-c1nc3c(c(C(N)=O)n1)C(C)(C)C(=O)N3)nn2Cc1ncccc1F

Ans.
[15, 130]

Would you be so kind as to report IC50 for each listed record?
1. Cn1nccc1CNc1nc(-c2nn(Cc3ccccc3F)c3ncccc23)nc2c1C(C)(C)C(=O)N2
2. CN(CC1CC1)C(=O)c1nc(-c2nn(Cc3ccccc3F)c3cc(Cl)ccc23)nc2c1C(C)(C)C(=O)N2
3. CC1(C)C(=O)Nc2nc(-c3nn(Cc4ccccc4F)c4ncccc34)nc(C(=O)Nc3cn[nH]c3)c21
4. Cc1nc2c(OCc3c(F)cccc3F)cccn2c1-c1nc(NCC(C)(N)C(F)(F)F)c2c(n1)NC(=O)C2(C)C (racemic)
5. CC1(C)C(=O)Nc2nc(-c3nc(Cc4ccccc4F)c4ncccn34)nc(NCCC(F)(F)F)c21

Ans.
[11, 730, 4.3, 14, 88]
